- method_summary: Particle size by laser particle size distribution analyzer
- Type: physicochemical
- conditions_used: Effect Example 2; microcrystals of the Examples
Record form. Attribute: particle size D50. Fill in for each entry.

Entry O=C1CCc2ccc(OCCCCN3CCN(c4cccc(Cl)c4Cl)CC3)cc2N1 [Example 24, aripiprazole] — recorded particle size D50 = 3.93 micron

# particle size D50 (compound: O=C1CCc2ccc(OCCCCN3CCN(c4cccc(Cl)c4Cl)CC3)cc2N1 [Example 23, aripiprazole] ) is 9.67 micron

Measured particle size D50, O=C1CCc2ccc(OCCCCN3CCN(c4cccc(Cl)c4Cl)CC3)cc2N1 [Example 5, aripiprazole] : 4.75 micron

Lab book: particle size D50 of O=C1CCc2ccc(OCCCCN3CCN(c4cccc(Cl)c4Cl)CC3)cc2N1 [Example 3, aripiprazole] noted as 11.64 micron

response.value for O=C1CCc2ccc(OCCCCN3CCN(c4cccc(Cl)c4Cl)CC3)cc2N1 [Contrastive Example 1, aripiprazole] (field: particle size D50) = 29.85 micron

Lookup result for O=C1CCc2ccc(OCCCCN3CCN(c4cccc(Cl)c4Cl)CC3)cc2N1 [Example 2, aripiprazole] ; measured particle size D50: 10.91 micron

Record summary for O=C1CCc2ccc(OCCCCN3CCN(c4cccc(Cl)c4Cl)CC3)cc2N1 [Example 4, aripiprazole] : reported particle size D50 = 8.78 micron
